What log10(Ki) was measured for each of the following?
# TARGET_OR_SYSTEM: Delta-type opioid receptor (Rattus norvegicus, UniProt P33533)
# Sequence (P33533 whole entry): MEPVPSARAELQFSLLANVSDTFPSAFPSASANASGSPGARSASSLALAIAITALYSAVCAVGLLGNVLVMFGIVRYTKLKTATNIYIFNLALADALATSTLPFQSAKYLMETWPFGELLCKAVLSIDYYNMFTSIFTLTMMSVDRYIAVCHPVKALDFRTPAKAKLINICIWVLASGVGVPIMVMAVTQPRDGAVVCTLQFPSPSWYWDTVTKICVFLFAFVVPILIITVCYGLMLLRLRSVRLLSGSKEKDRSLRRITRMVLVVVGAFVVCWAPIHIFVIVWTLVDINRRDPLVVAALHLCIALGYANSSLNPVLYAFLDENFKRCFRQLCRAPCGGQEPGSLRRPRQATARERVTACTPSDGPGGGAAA
# ASSAY_TEXT: Displacement of [3H]DADLE from morphine-insensitive Opioid receptor delta 1 (presence of 50 nM morphine) of rat brain membranes
# Format: cell membranes, Membrane
Log scale reminder: Ki in nM, then log10 taken.

Incoming: Return log10(Ki) (reported value) for this molecule: Oc1ccc2c3c1OC1c4[nH]c5ccc(OCc6ccccc6)cc5c4C[C@@]4(O)[C@@H](C2)N(CC2CC2)CC[C@]314 (some centres not stated)
Outgoing: 0.23

Incoming: Return log10(Ki) (reported value) for this molecule: Oc1ccc2c3c1OC1c4[nH]c5ccc(-c6ccccc6)cc5c4C[C@@]4(O)[C@@H](C2)N(CC2CC2)CC[C@]314 (some centres not stated)
Outgoing: 1.39

Incoming: Return log10(Ki) (reported value) for this molecule: Oc1ccc2c3c1OC1c4[nH]c5cc(-c6ccccc6)ccc5c4C[C@@]4(O)[C@@H](C2)N(CC2CC2)CC[C@]314 (some centres not stated)
Outgoing: 1.15

Incoming: Return log10(Ki) (reported value) for this molecule: Oc1ccc2c3c1O[C@H]1c4[nH]c5ccccc5c4C[C@@]4(O)[C@@H](C2)N(CC2CC2)CC[C@]314 [NALTRINDOLE]
Outgoing: -0.62

Incoming: Return log10(Ki) (reported value) for this molecule: Oc1ccc2c3c1OC1c4[nH]c5ccc(/C=C/c6ccccn6)cc5c4C[C@@]4(O)[C@@H](C2)N(CC2CC2)CC[C@]314 (some centres not stated)
Outgoing: 0.60

Incoming: Return log10(Ki) (reported value) for this molecule: Oc1ccc2c3c1OC1c4[nH]c5cccc(Oc6ccccc6)c5c4C[C@@]4(O)[C@@H](C2)N(CC2CC2)CC[C@]314 (some centres not stated)
Outgoing: 2.06

Incoming: Return log10(Ki) (reported value) for this molecule: Oc1ccc2c3c1OC1c4[nH]c5cccc(-c6ccccc6)c5c4C[C@@]4(O)[C@@H](C2)N(CC2CC2)CC[C@]314 (some centres not stated)
Outgoing: 2.10

---

# TARGET_OR_SYSTEM: Kappa-type opioid receptor (Cavia porcellus, UniProt P41144)
# Sequence (P41144 whole entry): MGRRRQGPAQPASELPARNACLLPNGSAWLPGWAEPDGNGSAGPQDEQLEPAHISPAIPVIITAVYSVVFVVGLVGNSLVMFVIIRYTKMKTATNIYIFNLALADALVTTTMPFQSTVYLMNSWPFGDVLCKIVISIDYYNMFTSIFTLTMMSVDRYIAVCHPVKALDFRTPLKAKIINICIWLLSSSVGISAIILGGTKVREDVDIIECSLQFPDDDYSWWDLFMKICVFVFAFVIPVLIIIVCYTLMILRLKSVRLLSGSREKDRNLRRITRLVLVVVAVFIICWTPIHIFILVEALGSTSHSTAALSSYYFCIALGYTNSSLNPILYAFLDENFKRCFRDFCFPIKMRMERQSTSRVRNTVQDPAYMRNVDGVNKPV
# ASSAY_TEXT: Displacement of [3H]U-69593 from Opioid receptor kappa 1 of guinea pig brain membranes (pretreated with BIT and FIT to block mu and delta sites)
Mark each entry true if its Ki sits below 300 nM, and false for all others.

Incoming: Does the reported Ki of Oc1ccc2c3c1OC1c4[nH]c5cc(OCc6ccccc6)ccc5c4C[C@@]4(O)[C@@H](C2)N(CC2CC2)CC[C@]314 (some centres undefined) stay below 300 nM?
Outgoing: false

Incoming: Does the reported Ki of Oc1ccc2c3c1OC1c4[nH]c5cccc(OCc6ccccc6)c5c4C[C@@]4(O)[C@@H](C2)N(CC2CC2)CC[C@]314 (some centres undefined) stay below 300 nM?
Outgoing: false

Incoming: Does the reported Ki of Oc1ccc2c3c1OC1c4[nH]c5cc(Oc6ccccc6)ccc5c4C[C@@]4(O)[C@@H](C2)N(CC2CC2)CC[C@]314 (some centres undefined) stay below 300 nM?
Outgoing: true

Incoming: Does the reported Ki of Oc1ccc2c3c1O[C@H]1c4[nH]c5ccccc5c4C[C@@]4(O)[C@@H](C2)N(CC2CC2)CC[C@]314 [NALTRINDOLE] stay below 300 nM?
Outgoing: true

Incoming: Does the reported Ki of Oc1ccc2c3c1OC1c4[nH]c5cc(-c6ccccc6)ccc5c4C[C@@]4(O)[C@@H](C2)N(CC2CC2)CC[C@]314 (some centres undefined) stay below 300 nM?
Outgoing: false

Incoming: Does the reported Ki of Oc1ccc2c3c1OC1c4[nH]c5ccc(OCc6ccccc6)cc5c4C[C@@]4(O)[C@@H](C2)N(CC2CC2)CC[C@]314 (some centres undefined) stay below 300 nM?
Outgoing: true

Incoming: Does the reported Ki of Oc1ccc2c3c1OC1c4[nH]c5c(Oc6ccccc6)cccc5c4C[C@@]4(O)[C@@H](C2)N(CC2CC2)CC[C@]314 (some centres undefined) stay below 300 nM?
Outgoing: true

Incoming: Does the reported Ki of Oc1ccc2c3c1OC1c4[nH]c5ccc(Oc6ccccc6)cc5c4C[C@@]4(O)[C@@H](C2)N(CC2CC2)CC[C@]314 (some centres undefined) stay below 300 nM?
Outgoing: true

Incoming: Does the reported Ki of Oc1ccc2c3c1OC1c4[nH]c5c(OCc6ccccc6)cccc5c4C[C@@]4(O)[C@@H](C2)N(CC2CC2)CC[C@]314 (some centres undefined) stay below 300 nM?
Outgoing: true

Incoming: Does the reported Ki of Oc1ccc2c3c1OC1c4[nH]c5ccc(-c6ccccc6)cc5c4C[C@@]4(O)[C@@H](C2)N(CC2CC2)CC[C@]314 (some centres undefined) stay below 300 nM?
Outgoing: false

Incoming: Does the reported Ki of Oc1ccc2c3c1OC1c4[nH]c5c(-c6ccccc6)cccc5c4C[C@@]4(O)[C@@H](C2)N(CC2CC2)CC[C@]314 (some centres undefined) stay below 300 nM?
Outgoing: false

Incoming: Does the reported Ki of Oc1ccc2c3c1OC1c4[nH]c5cccc(-c6ccccc6)c5c4C[C@@]4(O)[C@@H](C2)N(CC2CC2)CC[C@]314 (some centres undefined) stay below 300 nM?
Outgoing: false

Incoming: Does the reported Ki of Oc1ccc2c3c1OC1c4[nH]c5cccc(Oc6ccccc6)c5c4C[C@@]4(O)[C@@H](C2)N(CC2CC2)CC[C@]314 (some centres undefined) stay below 300 nM?
Outgoing: false

Incoming: Does the reported Ki of Oc1ccc2c3c1OC1c4[nH]c5ccc(/C=C/c6ccccn6)cc5c4C[C@@]4(O)[C@@H](C2)N(CC2CC2)CC[C@]314 (some centres undefined) stay below 300 nM?
Outgoing: true

---

# TARGET_OR_SYSTEM: Kappa-type opioid receptor (Cavia porcellus)
# ASSAY_TEXT: Displacement of [125I]OXY from Opioid receptor kappa 2b of guinea pig brain membranes (pretreated with BIT(mu) and FIT(delta) and in the presence of (-)U50,488)
pKi: −log10 of the molar value.
So basically: pKi at 7 or higher? That is condition met. Lower than 7? That is condition not met.

Incoming: Would you say "Oc1ccc2c3c1O[C@H]1c4[nH]c5ccccc5c4C[C@@]4(O)[C@@H](C2)N(CC2CC2)CC[C@]314" shows pKi at minimum 7?
Outgoing: condition met

Incoming: Would you say Oc1ccc2c3c1OC1c4[nH]c5cccc(Oc6ccccc6)c5c4C[C@@]4(O)[C@@H](C2)N(CC2CC2)CC[C@]314 (some centres not stated) shows pKi at minimum 7?
Outgoing: condition not met

Incoming: Would you say Oc1ccc2c3c1OC1c4[nH]c5ccc(Oc6ccccc6)cc5c4C[C@@]4(O)[C@@H](C2)N(CC2CC2)CC[C@]314 (some centres not stated) shows pKi at minimum 7?
Outgoing: condition not met

Incoming: Would you say Oc1ccc2c3c1OC1c4[nH]c5cc(Oc6ccccc6)ccc5c4C[C@@]4(O)[C@@H](C2)N(CC2CC2)CC[C@]314 (some centres not stated) shows pKi at minimum 7?
Outgoing: condition not met

Incoming: Would you say Oc1ccc2c3c1OC1c4[nH]c5ccc(/C=C/c6ccccn6)cc5c4C[C@@]4(O)[C@@H](C2)N(CC2CC2)CC[C@]314 (some centres not stated) shows pKi at minimum 7?
Outgoing: condition met

Incoming: Would you say Oc1ccc2c3c1OC1c4[nH]c5ccc(-c6ccccc6)cc5c4C[C@@]4(O)[C@@H](C2)N(CC2CC2)CC[C@]314 (some centres not stated) shows pKi at minimum 7?
Outgoing: condition not met

---

# TARGET_OR_SYSTEM: Mu-type opioid receptor (Mus musculus) (UniProt P42866)
# Sequence (P42866 whole entry): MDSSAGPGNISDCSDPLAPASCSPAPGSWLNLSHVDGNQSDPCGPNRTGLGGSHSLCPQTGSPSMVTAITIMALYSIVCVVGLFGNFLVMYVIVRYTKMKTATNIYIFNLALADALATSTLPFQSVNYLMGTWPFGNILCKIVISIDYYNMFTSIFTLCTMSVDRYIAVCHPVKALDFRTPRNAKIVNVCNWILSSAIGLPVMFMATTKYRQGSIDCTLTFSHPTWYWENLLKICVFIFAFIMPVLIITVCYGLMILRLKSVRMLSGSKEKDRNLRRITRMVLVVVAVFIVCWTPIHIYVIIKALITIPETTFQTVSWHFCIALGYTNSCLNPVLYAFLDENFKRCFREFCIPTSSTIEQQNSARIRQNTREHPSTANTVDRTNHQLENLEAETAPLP
# ASSAY_TEXT: Compound was tested for antagonist activity against Opioid receptor mu 1 on electrically stimulated guinea pig ileal longitudinal muscle myenteric plexus (GPI) using PL017 as antagonist ligand. IC50 ratio = IC50(agonist)/IC50 (control)
# Assay type: functional
# COND: Cavia porcellus; target entry is the homologue from another species
What Ratio was measured for each of the following?

Incoming: Return Ratio (reported value) for this compound: Oc1ccc2c3c1OC1c4[nH]c5cccc(Oc6ccccc6)c5c4C[C@@]4(O)[C@@H](C2)N(CC2CC2)CC[C@]314 (some centres undefined)
Outgoing: 2.7

Incoming: Return Ratio (reported value) for this compound: Oc1ccc2c3c1OC1c4[nH]c5ccc(OCc6ccccc6)cc5c4C[C@@]4(O)[C@@H](C2)N(CC2CC2)CC[C@]314 (some centres undefined)
Outgoing: 2.8

Incoming: Return Ratio (reported value) for this compound: Oc1ccc2c3c1OC1c4[nH]c5cccc(-c6ccccc6)c5c4C[C@@]4(O)[C@@H](C2)N(CC2CC2)CC[C@]314 (some centres undefined)
Outgoing: 2.4

Incoming: Return Ratio (reported value) for this compound: Oc1ccc2c3c1OC1c4[nH]c5c(-c6ccccc6)cccc5c4C[C@@]4(O)[C@@H](C2)N(CC2CC2)CC[C@]314 (some centres undefined)
Outgoing: 4.2

---

# TARGET_OR_SYSTEM: Mu-type opioid receptor (Rattus norvegicus)
# Sequence (P33535 whole entry): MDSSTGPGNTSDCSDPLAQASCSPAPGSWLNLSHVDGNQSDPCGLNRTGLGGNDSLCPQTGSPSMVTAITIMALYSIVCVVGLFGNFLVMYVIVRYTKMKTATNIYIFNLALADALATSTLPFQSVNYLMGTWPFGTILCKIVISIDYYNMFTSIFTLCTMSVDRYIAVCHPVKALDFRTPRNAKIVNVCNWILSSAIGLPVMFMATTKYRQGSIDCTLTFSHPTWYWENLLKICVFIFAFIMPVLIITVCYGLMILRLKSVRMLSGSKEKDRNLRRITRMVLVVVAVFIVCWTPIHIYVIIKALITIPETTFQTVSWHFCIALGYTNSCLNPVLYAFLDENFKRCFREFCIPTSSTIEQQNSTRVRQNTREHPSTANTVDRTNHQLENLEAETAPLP
pKi: −log10 of the molar value.
So basically: pKi at 7 or higher? That is fulfilled. Lower than 7? That is not fulfilled.

Incoming: Would you say Oc1ccc2c3c1OC1c4[nH]c5ccc(Oc6ccccc6)cc5c4C[C@@]4(O)[C@@H](C2)N(CC2CC2)CC[C@]314 (some centres undefined) shows pKi at minimum 7?
Outgoing: not fulfilled

Incoming: Would you say Oc1ccc2c3c1OC1c4[nH]c5cccc(-c6ccccc6)c5c4C[C@@]4(O)[C@@H](C2)N(CC2CC2)CC[C@]314 (some centres undefined) shows pKi at minimum 7?
Outgoing: not fulfilled

Incoming: Would you say Oc1ccc2c3c1OC1c4[nH]c5c(Oc6ccccc6)cccc5c4C[C@@]4(O)[C@@H](C2)N(CC2CC2)CC[C@]314 (some centres undefined) shows pKi at minimum 7?
Outgoing: fulfilled

Incoming: Would you say Oc1ccc2c3c1OC1c4[nH]c5cc(-c6ccccc6)ccc5c4C[C@@]4(O)[C@@H](C2)N(CC2CC2)CC[C@]314 (some centres undefined) shows pKi at minimum 7?
Outgoing: not fulfilled

Incoming: Would you say Oc1ccc2c3c1OC1c4[nH]c5cccc(Oc6ccccc6)c5c4C[C@@]4(O)[C@@H](C2)N(CC2CC2)CC[C@]314 (some centres undefined) shows pKi at minimum 7?
Outgoing: not fulfilled
